Biological target: human GABAA α1β3γ2 receptor (Homo sapiens (Human), UniProt P14867+P18507)
Assay: Radioligand binding assay for γ2-containing GABAA subtypes, [3H]Flumazenil competition (α1β3γ2)
Settings: Ki α1β3γ2 (nM)/Ki α2β2γ1 (nM)
Reported γ2/γ1 Selectivity Ratio maps to class as: band 1 = under 60, band 2 = from 60 up to 200, band 3 = 200 and over

The examples below pair each entry with its known result.
mol=[2H]C([2H])([2H])OC1CN(C(=O)c2nc3n(n2)-c2ccc(C(F)(F)F)c(Cl)c2C(c2ncccc2F)=N[C@H]3C)C1 classification="band 2"
mol=[2H]C([2H])([2H])OC1CN(C(=O)c2nc3n(n2)-c2ccc(Cl)c(Cl)c2C(c2ncccc2F)=N[C@H]3C)C1 classification="band 3"
mol=C[C@@H]1N=C(c2ncccc2F)c2c(ccc(Cl)c2Cl)-n2nc(C(=O)N3CC4(CCCO4)C3)nc21 classification="band 3"
mol=C[C@@H]1N=C(c2c(F)cccc2F)c2c(ccc(Cl)c2Cl)-n2nc(C(F)F)nc21 classification="band 1"
mol=C[C@@H]1N=C(c2c(F)cccc2F)c2c(ccc(Cl)c2Cl)-n2nc(C(=O)N3CC[C@@H](O)C3)nc21 classification="band 3"
mol=C[C@@H]1N=C(c2ncccc2F)c2c(ccc(Cl)c2Cl)-n2nc(C(=O)N3CC[C@@H](F)C3)nc21 classification="band 2"

Lab note: which band did `C[C@@H]1N=C(c2ncccc2F)c2c(ccc(C(F)(F)F)c2Cl)-n2nc(NC(=O)NC3COC3)nc21` land in?
band 3

Input `COc1nc2n(n1)-c1ccc(Cl)c(Cl)c1C(c1c(F)cccc1F)=N[C@H]2C` ; output its category
band 1

Classify this molecule: `C[C@@H]1N=C(c2c(F)cccc2F)c2c(ccc(Cl)c2Cl)-n2nc(N3CC(C#N)C3)nc21`
band 1

Class? Entry: `COC1CN(C(=O)c2cn3c(n2)[C@H](C)N=C(c2ncccc2F)c2c-3ccc(C(F)(F)F)c2Cl)C1`
band 2

Which of the defined bands does the recorded γ2/γ1 Selectivity Ratio of `C[C@@H]1N=C(c2c(F)cccc2F)c2c(ccc(Cl)c2Cl)-n2nc(C(=O)NCCO)nc21` sit within?
band 2

* * *

Target: human GABAA α1β3γ2 receptor (Homo sapiens (Human), UniProt P14867+P18507)
Assay: Radioligand binding assay for γ2-containing GABAA subtypes, [3H]Flumazenil competition (α1β3γ2)
Settings: Ki α1β3γ2 (nM)/Ki α2β2γ1 (nM)
REPORTED_PROPERTY: γ2/γ1 Selectivity Ratio
Give bare numbers.

Examples from the recorded data:
mol=CO[C@H]1CCN(C(=O)c2nc3n(n2)-c2ccc(Cl)c(Cl)c2C(c2ncccc2F)=N[C@H]3C)C1 observed_result=91.2
mol=C[C@@H]1N=C(c2c(F)cccc2F)c2c(ccc(Cl)c2Cl)-n2nc(C(=O)N3CC4(COC4)C3)nc21 observed_result=390.6
mol=C[C@@H]1N=C(c2ncccc2F)c2c(ccc(C(F)(F)F)c2Cl)-n2nc(C(=O)N3CC4(CCOC4)C3)nc21 observed_result=66.3

Take each entry in turn and give its γ2/γ1 Selectivity Ratio.
1. C[C@@H]1N=C(c2c(F)cccc2F)c2c(ccc(C(F)(F)F)c2Cl)-n2nc(NC(=O)NC3CC3)nc21
2. C[C@@H]1N=C(c2c(F)cccc2F)c2c(ccc(Cl)c2Cl)-n2nc(C3COC3)nc21
3. CNS(=O)(=O)c1nc2n(n1)-c1ccc(Cl)c(Cl)c1C(c1c(F)cccc1F)=N[C@H]2C
4. C[C@@H]1N=C(c2c(F)cccc2F)c2c(ccc(Cl)c2Cl)-n2nc(C(=O)NCCF)nc21
5. C[C@@H]1N=C(c2ncccc2F)c2c(ccc(C(F)(F)F)c2Cl)-n2nc(C(=O)N3CC[C@H](F)C3)nc21
6. C[C@@H]1N=C(c2c(F)cccc2F)c2c(ccc(Cl)c2Cl)-n2ncnc21
7. C[C@@H]1N=C(c2ncccc2F)c2c(ccc(C(F)(F)F)c2Cl)-n2nc(C(=O)N3CC(C(F)F)C3)nc21
8. C[C@@H]1N=C(c2c(F)cccc2F)c2c(ccc(C(F)(F)F)c2Cl)-n2nc(C(=O)N3CC(OC(F)F)C3)nc21

1. 451.4
2. 87.4
3. 44.1
4. 91.5
5. 326.6
6. 46.3
7. 756.0
8. 53.3

Field: γ2/γ1 Selectivity Ratio. Fill in for each record below.
1. COC1CN(C(=O)c2nc3n(n2)-c2ccc(Cl)c(Cl)c2C(c2c(F)cccc2F)=N[C@H]3C)C1
2. Cc1cn2c(n1)[C@H](C)N=C(c1c(F)cccc1F)c1c-2ccc(C(F)(F)F)c1Cl
3. C[C@@H]1N=C(c2c(F)cccc2F)c2c(ccc(C(F)(F)F)c2Cl)-n2c1nc1c2CCC1
4. [2H]C([2H])([2H])NC(=O)c1nc2n(n1)-c1ccc(C(F)(F)F)c(Cl)c1C(c1c(F)cccc1F)=N[C@H]2C

109.6
84.7
35.5
152.4

* * *

Target: human GABAA α1β3γ2 receptor (Homo sapiens (Human), UniProt P14867+P18507)
Assay: Radioligand binding assay for γ2-containing GABAA subtypes, [3H]Flumazenil competition (α1β3γ2)
Returns: string. Value is T if measured Ki is below 5000 nM, and F if it is greater than or equal to it.

Example cases with answers are listed next.
compound="C[C@@H]1N=C(c2c(F)cccc2F)c2c(ccc(Cl)c2Cl)-n2nc(C(=O)NC3COC3)nc21 [Example 55]" classification=T
compound="C[C@@H]1N=C(c2ncccc2F)c2c(ccc(Cl)c2Cl)-n2nc(C(=O)N3CC(OC(F)F)C3)nc21 [Example 90]" classification=T
compound="C[C@@H]1N=C(c2ncccc2F)c2c(ccc(Cl)c2Cl)-n2nc(C(=O)N3CC4(CCCCO4)C3)nc21 [Example 101]" classification=F
compound="C[C@@H]1N=C(c2c(F)cccc2F)c2c(ccc(Cl)c2Cl)-n2ncnc21 [Example 15]" classification=T
compound="Cc1cnc2n1-c1ccc(C(F)(F)F)c(Cl)c1C(c1ncccc1F)=N[C@H]2C [Example 136]" classification=F

Determine if C[C@@H]1N=C(c2c(F)cccc2F)c2c(ccc(Cl)c2Cl)-n2nc(C3CC3)nc21 [Example 49] shows Ki strictly lower than 5000 nM.
T

Does the reported Ki of [2H]C([2H])([2H])OC1CN(C(=O)c2nc3n(n2)-c2ccc(Cl)c(Cl)c2C(c2c(F)cccc2F)=N[C@H]3C)C1 [Example 17] stay below 5000 nM?
T

* * *

Target: α2β2γ1 GABAA receptor subtype (Homo sapiens (Human), UniProt P47869+Q8N1C3)
Test: Two-electrode voltage clamp electrophysiology in Xenopus oocytes expressing GABAA receptors (modulation of GABA EC20 current)
Assay type: cell-based
Settings: Xenopus oocytes expressing α2β2γ1; compound at approx. 30-fold its Ki α2β2γ1; GABA EC20 current
Tick YES if Fold increase h-GABA-A α2β2γ1 oocyte @ 30-fold Ki is 2 or greater. Tick NO if Fold increase h-GABA-A α2β2γ1 oocyte @ 30-fold Ki is less than 2.

Reference set (3 entries):
compound=C[C@@H]1N=C(c2c(F)cccc2F)c2c(ccc(Cl)c2Cl)-n2nc(N3CCS(=O)(=O)CC3)nc21 experimental_target="α2β2γ1 GABAA receptor subtype (Homo sapiens (Human), UniProt P47869+Q8N1C3)" classification=NO
compound=C[C@@H]1N=C(c2c(F)cccc2F)c2c(ccc(Cl)c2Cl)-n2nc(C3CC3)nc21 experimental_target="α2β2γ1 GABAA receptor subtype (Homo sapiens (Human), UniProt P47869+Q8N1C3)" classification=NO
compound=C[C@H](O)CNC(=O)c1cn2c(n1)[C@H](C)N=C(c1ncccc1F)c1c-2ccc(C(F)(F)F)c1Cl experimental_target="α2β2γ1 GABAA receptor subtype (Homo sapiens (Human), UniProt P47869+Q8N1C3)" classification=YES

Can C[C@@H]1N=C(c2c(F)cccc2F)c2c(ccc(C(F)(F)F)c2Cl)-n2nc(NC(=O)N3C4COCC3C4)nc21 (single isomer, unassigned) be said to have Fold increase h-GABA-A α2β2γ1 oocyte @ 30-fold Ki at or above 2?
YES

Dear colleague, could you confirm whether `[2H]C([2H])([2H])NC(=O)c1nc2n(n1)-c1ccc(C(F)(F)F)c(Cl)c1C(c1c(F)cccc1F)=N[C@H]2C` has Fold increase h-GABA-A α2β2γ1 oocyte @ 30-fold Ki at or above 2?
NO

Does `CCOC1CN(C(=O)c2nc3n(n2)-c2ccc(C(F)(F)F)c(Cl)c2C(c2ncccc2F)=N[C@H]3C)C1` have a reported Fold increase h-GABA-A α2β2γ1 oocyte @ 30-fold Ki of at least 2?
YES

// inclusive: Fold increase h-GABA-A α2β2γ1 oocyte @ 30-fold Ki at least 2? input: `C[C@@H]1N=C(c2ncccc2F)c2c(ccc(Cl)c2Cl)-n2nc(C(=O)N3CC4(CCOCC4)C3)nc21`
YES
